Just for reference, paper PMC12392461 is where these values come from.

Test: Acidity constant (pKa) measurement, Sirius T3 UV-metric, and speciation at pH 7.4
Details: from experimental pKa
So I've got a bunch of molecules here, and I need their Negative form (pH = 7.40) values.
Answers are plain numbers, in %.

Below, 3 molecules whose answers are already recorded.
O=S(=O)(c1ccc(O)cc1)c1ccccc1O [2,4-BPS, 2,4'-Dihydroxydiphenyl sulfone] :: 52
O=S(=O)(c1ccc(O)cc1)c1ccc(O)cc1 [BPS, 4,4'-Sulfonyldiphenol] :: 52
Cc1ccc(S(=O)(=O)NC(=O)Nc2ccc(Cc3ccc(NC(=O)NS(=O)(=O)c4ccc(C)cc4)cc3)cc2)cc1 [BTUM] :: 0.47

Switching to the query record.
// CC(C)(c1ccc(O)c(-c2ccccc2)c1)c1ccc(O)c(-c2ccccc2)c1 [BPPH, 2,2-Bis(2-hydroxy-5-biphenylyl)propane] : Negative form (pH = 7.40) value = 0.825

###

Biological target: Estrogen Receptor ERα (Homo sapiens)
Test: cell-based
Details: Bioassay ERα; dosing range all; linear model fit; in M
So I've got a bunch of compounds here, and I need their EC10, linear values.
Answers are plain numbers.

Below, 2 compounds whose answers are already recorded.
Oc1ccc(Cc2ccc(O)cc2)cc1 [BPF, Bis(4-hydroxyphenyl)methane] :: 1.45E-06
Oc1ccc(Sc2ccc(O)cc2)cc1 :: 7.27E-07

// each compound listed below needs its EC10, linear
1. CC(C)Oc1ccc(S(=O)(=O)c2ccc(O)cc2)cc1
2. CC(C)c1cc(C(C)(C)c2ccc(O)c(C(C)C)c2)ccc1O
3. C=CCOc1ccc(S(=O)(=O)c2ccc(O)cc2)cc1 [BPS-MAE, 4-[[4-(Allyloxy)phenyl]sulfonyl]phenol]
4. O=C(OCc1ccccc1)c1ccc(O)cc1 [BzPB, Benzyl 4-hydroxybenzoate]

1.41E-05
9.31E-07
1.41E-05
1.96E-06

###

So I've got a bunch of compounds here, and I need their log10(EC10) values.
Test system: Mitochondrial Membrane Potential
Assay: cells
Details: Arec32, read-out: EC10, MMP (M)
Plainly stated, the numbers are log10 of EC10 given in M.

Below, 5 compounds whose answers are already recorded.
Oc1ccc(C(c2ccc(O)cc2)(C(F)(F)F)C(F)(F)F)cc1 :: -5.27
O=S(=O)(c1ccc(O)cc1)c1ccc(OCc2ccccc2)cc1 [BPS-MPE, 4-[4-(benzyloxy)benzenesulfonyl]phenol] :: -5.25
CC(c1ccc(O)cc1)c1ccc(O)cc1 :: -4.49
CCC(C)(c1ccc(O)cc1)c1ccc(O)cc1 :: -4.79
CC(C)c1cc(C(C)(C)c2ccc(O)c(C(C)C)c2)ccc1O :: -5.51

// Oc1ccc(Sc2ccc(O)cc2)cc1 : log10(EC10) value = -4.74

###

System: Antioxidant response element
Test: MitoOxTox: oxidative stress response in AREc32
Details: Arec32, read-out: EC10, linear
Measurement type: EC10
Field: value (include unit after the number)

CC(C)Oc1ccc(S(=O)(=O)c2ccc(O)cc2)cc1 :: 1080 µM
O=C(OCc1ccccc1)c1ccc(O)cc1 [BzPB, Benzyl 4-hydroxybenzoate] :: 32.1 µM

// each compound listed below needs its EC10
1. O=S(=O)(c1ccc(O)cc1)c1ccc(OCc2ccccc2)cc1 [BPS-MPE, 4-[4-(benzyloxy)benzenesulfonyl]phenol]
2. Oc1ccc(Sc2ccc(O)cc2)cc1

55.7 µM
85.6 µM

###

So I've got a bunch of compounds here, and I need their Specificity ratio (SRbaseline) SRERα values.
Target: Estrogen Receptor ERα (Homo sapiens, UniProt P03372)
Sequence (P03372 311-547 limits assumed): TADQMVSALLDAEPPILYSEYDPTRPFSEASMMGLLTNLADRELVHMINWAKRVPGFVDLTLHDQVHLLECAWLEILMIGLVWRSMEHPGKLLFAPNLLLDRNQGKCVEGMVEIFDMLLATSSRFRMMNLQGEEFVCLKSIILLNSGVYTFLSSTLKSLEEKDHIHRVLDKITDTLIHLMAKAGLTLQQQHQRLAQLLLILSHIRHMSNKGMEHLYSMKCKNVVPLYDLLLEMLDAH
Assay: cell-based
Settings: against baseline cytotoxicity
One number for each entry.

Below, 3 compounds whose answers are already recorded.
COC(=O)C(c1ccc(O)cc1)c1ccc(O)cc1 [Bz, Methyl bis(4-hydroxyphenyl)acetate] :: 245.73
CC(C)Oc1ccc(S(=O)(=O)c2ccc(O)cc2)cc1 :: 5.88
CCC(C)(c1ccc(O)cc1)c1ccc(O)cc1 :: 66.42

Measured on Estrogen Receptor ERα (Homo sapiens, UniProt P03372), CC(C)c1cc(C(C)(C)c2ccc(O)c(C(C)C)c2)ccc1O has a documented Specificity ratio (SRbaseline) SRERα of 1.60
